Listed next: entries and their corresponding growth AUC.
test system: Escherichia coli ED1a; assay: growth AUC relative to DMSO control (median of replicates) (fraction); higher = more growth (less inhibition), active = hit call of the paper; conditions: 20 µM; 24 h
// no unit string in output, number only

// solved cases for growth AUC follow
molecule=Cc1nc(C(F)(F)F)c(C(=O)Nc2c(Br)cc(OC(F)(F)F)cc2Br)s1 assay_metric="growth AUC" measured=1.02
molecule=CCSC(=O)N(CC(C)C)CC(C)C assay_metric="growth AUC" measured=1.02
molecule=CSc1nnc(C(C)(C)C)c(=O)n1/N=C/C(C)C assay_metric="growth AUC" measured=1.04
molecule=CCOC(=O)c1ccc(O)cc1 assay_metric="growth AUC" measured=0.974
molecule=CC(C)(C)Nc1nc(N)nc(Cl)n1 assay_metric="growth AUC" measured=1.03

# Cc1c(C(=O)c2c[nH]n(C)c2=O)ccc(S(C)(=O)=O)c1C1=NOCC1 with Escherichia coli ED1a: growth AUC is 0.984

# COCC(=O)N(c1c(C)cccc1C(=O)O)C(C)C(=O)O (centres undefined) with Escherichia coli ED1a: growth AUC is 0.986

# C=C1C[C@]23C[C@@]1(O)CC[C@H]2[C@@]12C=C[C@H](O)[C@@](C)(C(=O)O1)[C@H]2[C@@H]3C(=O)O with Escherichia coli ED1a: growth AUC is 0.982

# CC(C)NS(=O)(=O)NC(=O)c1cc(NC(N)=O)c(F)cc1Cl with Escherichia coli ED1a: growth AUC is 1.01

# CC(C)c1nn(C(=O)NC(C)(C)C)c(=O)n1N with Escherichia coli ED1a: growth AUC is 1.02

# CCc1cccc(C)c1NC(=O)C(=O)O with Escherichia coli ED1a: growth AUC is 1.02

# CCCC(C)(C)C(=O)Nc1ccc(Cl)cc1 with Escherichia coli ED1a: growth AUC is 0.973

# C=O with Escherichia coli ED1a: growth AUC is 1.03

# O=C(O)Cc1c(Cl)ccc(Cl)c1Cl with Escherichia coli ED1a: growth AUC is 0.947

# CCc1ccc(O)cc1 with Escherichia coli ED1a: growth AUC is 1.02

# O=C(O)COc1ccc(Cl)c2cccnc12 with Escherichia coli ED1a: growth AUC is 1.05

----------
system: Coprococcus comes; experiment: growth AUC relative to DMSO control (median of replicates) (fraction); higher = more growth (less inhibition), active = hit call of the paper; conditions: 20 µM; 24 h
Response key: yes (1) means growth AUC >= 1; no (0) means growth AUC < 1.

Worked examples, 8 molecules total:
molecule="CC(C)(C)C(=O)C(Oc1ccc(Cl)cc1)n1ccnc1 (configuration not stated)" cat="no (0)"
molecule=COC(=O)COc1ccc(Cl)cc1C cat="yes (1)"
molecule=CCCN(CCOc1c(Cl)cc(Cl)cc1Cl)C(=O)NC=O cat="no (0)"
molecule=Oc1cccc2ccccc12 cat="no (0)"
molecule=CCCCCCCCOC(=O)COc1cc(Cl)c(Cl)cc1Cl cat="no (0)"
molecule=CCNC(=O)[C@@H](C)OC(=O)Nc1ccccc1 cat="yes (1)"
molecule="COC(=O)C(Cl)Cc1ccc(Cl)cc1 (configuration not stated)" cat="no (0)"
molecule=O=C(NCc1ncc(C(F)(F)F)cc1Cl)c1c(Cl)cccc1Cl cat="yes (1)"

For this molecule, is measured growth AUC 1 or higher? O=[N+](Nc1ccccc1)c1ccccc1
no (0)

For this molecule, is measured growth AUC 1 or higher? CCCCCCCCCC[N+](C)(C)Cc1ccccc1.[Cl-]
no (0)

For this molecule, is measured growth AUC 1 or higher? [S]
no (0)

For this molecule, is measured growth AUC 1 or higher? Cc1cccc(C)c1N(C(=O)CCl)C1CCOC1=O (configuration not stated)
no (0)

For this molecule, is measured growth AUC 1 or higher? COC(=O)c1ccc(CNS(C)(=O)=O)cc1S(=O)(=O)NC(=O)Nc1nc(OC)cc(OC)n1
yes (1)

----------
Listed next: entries and their corresponding growth AUC.
test system: Bifidobacterium longum subsp. longum; experiment: growth AUC relative to DMSO control (median of replicates) (fraction); higher = more growth (less inhibition), active = hit call of the paper; details: 20 µM; 24 h
// no unit string in output, number only

// solved cases for growth AUC follow
molecule="COC(=O)C(Cl)Cc1ccc(Cl)cc1 (configuration not stated)" measured=1.01
molecule=CCSC(=O)COc1ccc(Cl)cc1C measured=1.04
molecule="CCCCOC(=O)C(C)Oc1ccc(Oc2ccc(C(F)(F)F)cn2)cc1 (configuration not stated)" measured=0.681

# CN(C)C(N)=O with Bifidobacterium longum subsp. longum: growth AUC is 0.973

# CN(C)C(=O)Nc1cc(C(C)(C)C)on1 with Bifidobacterium longum subsp. longum: growth AUC is 1.01

# O=C(O)Cc1c[nH]c2ccccc12 with Bifidobacterium longum subsp. longum: growth AUC is 1.01

----------
test system: Bacteroides clarus; experiment: growth AUC relative to DMSO control (median of replicates) (fraction); higher = more growth (less inhibition), active = hit call of the paper; settings: 20 µM; 24 h
Response key: T means growth AUC >= 1; F means growth AUC < 1.

compound=Cn1cc(C(=O)Nc2ccccc2-c2cc(F)c(F)c(F)c2)c(C(F)F)n1 tested_on="Bacteroides clarus" cat=F

// switching to the query compound
For this compound, is measured growth AUC 1 or higher? COC1CCC2(CC1)NC(=O)C(c1cc(C)ccc1C)=C2O (stereo unspecified)
T

----------
Listed next: entries and their corresponding growth AUC.
tested on: Lactobacillus gasseri; experiment: growth AUC relative to DMSO control (median of replicates) (fraction); higher = more growth (less inhibition), active = hit call of the paper; details: 20 µM; 24 h
// no unit string in output, number only

get_value(item= S=C([S-])NCCNC(=S)[S-].[Mn+2] , readout=growth AUC) returns 0.994

get_value(item= CC(C)N(C(=O)CS(=O)(=O)[O-])c1ccccc1.[Na+] , readout=growth AUC) returns 0.948

get_value(item= O=[N+](Nc1ccccc1)c1ccccc1 , readout=growth AUC) returns 0.973

get_value(item= COc1nc(C)nc(NC(=O)NS(=O)(=O)c2ccccc2OCCCl)n1 , readout=growth AUC) returns 0.933

get_value(item= O=C(O)COc1cccc(Cl)c1Cl , readout=growth AUC) returns 1.11

get_value(item= COC1CCC2(CC1)NC(=O)C(c1cc(C)ccc1C)=C2O (centres undefined) , readout=growth AUC) returns 0.95

----------
Listed next: entries and their corresponding growth AUC.
test system: Escherichia coli ED1a; assay: growth AUC relative to DMSO control (median of replicates) (fraction); higher = more growth (less inhibition), active = hit call of the paper; details: 20 µM; 24 h

// solved cases for growth AUC follow
compound=CCN(Cc1c(F)cccc1Cl)c1c([N+](=O)[O-])cc(C(F)(F)F)cc1[N+](=O)[O-] measured="0.982 (inactive)"
compound=CN(C)C(=O)Nc1ccccc1 measured="0.951 (inactive)"
compound=CC(C)Nc1nc(N)nc(Cl)n1 measured="1.01 (inactive)"
compound=Cc1ccc(Cl)cc1 measured="1.01 (inactive)"
compound=c1ccc2c(c1)ccc1ccccc12 measured="1.01 (inactive)"
compound=NS(=O)(=O)[O-].[NH4+] measured="1.03 (inactive)"
compound="CCNc1nc(NC(C)CC)nc(OC)n1 (stereo not drawn)" measured="0.992 (inactive)"
compound=O=C(O)CCCc1c[nH]c2ccccc12 measured="0.955 (inactive)"
compound="COC(=O)C(C)Oc1cc(Cl)c(Cl)cc1Cl (stereo not drawn)" measured="0.985 (inactive)"
compound=CC1(C)C(=O)Oc2ccc(OS(C)(=O)=O)cc21 measured="0.984 (inactive)"

get_value(item= O=C(Nc1ccc(Cl)cc1C(O)c1ccccc1)c1ccncc1 (stereo not drawn) , readout=growth AUC) returns 0.997 (inactive)

get_value(item= CCCCN(C)C(=O)Nc1ccc(Cl)c(Cl)c1 , readout=growth AUC) returns 1.01 (inactive)

get_value(item= Nc1nc2ccccc2[nH]1 , readout=growth AUC) returns 0.976 (inactive)

----------
tested on: Parabacteroides distasonis; assay: growth AUC relative to DMSO control (median of replicates) (fraction); higher = more growth (less inhibition), active = hit call of the paper; details: 20 µM; 24 h
Response key: satisfied means growth AUC >= 1; not satisfied means growth AUC < 1.

compound=CCc1cccc(C)c1N(COC(C)C)C(=O)CCl cat=satisfied

For this compound, is measured growth AUC 1 or higher? CN(C)C(=O)Nc1ccccc1
satisfied

----------
Listed next: entries and their corresponding growth AUC.
test system: Coprococcus comes; test: growth AUC relative to DMSO control (median of replicates) (fraction); higher = more growth (less inhibition), active = hit call of the paper; details: 20 µM; 24 h
// no unit string in output, number only

compound=COc1ccc(Cl)c(Cl)c1Cl tested_on="Coprococcus comes" measured=0.994

get_value(item= CCc1cccc(CC)c1N(COC)C(=O)CS(=O)(=O)[O-].[Na+] , readout=growth AUC) returns 0.971

get_value(item= CN(C)C(=O)Nc1ccc(Cl)c(Cl)c1 , readout=growth AUC) returns 1.02

get_value(item= CC(C)C(O)(c1ccc(OC(F)(F)F)cc1)c1cncnc1 (stereo not drawn) , readout=growth AUC) returns 1.01

get_value(item= COC(=O)C(C)Oc1cc(Cl)c(Cl)cc1Cl (stereo not drawn) , readout=growth AUC) returns 1

get_value(item= CO/N=C(/C(=O)O)c1ccccc1CO/N=C(\C)c1cccc(C(F)(F)F)c1 , readout=growth AUC) returns 0.977
